GI50 values for the compounds below.
tested on: OVCAR-4; assay: NCI tumour cell line growth inhibition, 48 h
Active and inactive are the calls of the source. Rule as the data show it: active = GI50 up to about 1.1 µM and inactive = higher.

Recorded results for 3 compounds are shown here.
# compound, GI50
rows = [
    ("CN(C)c1ccc(/C=C(\\NC(=O)c2ccccc2)c2nc3ccccc3c(=O)o2)cc1", "> 100 µM (inactive)"),
    ("CCCCCCCC(=O)O[C@H]1[C@H]2[C@@H](CC1(C)C)C(=O)[C@]13O[C@H]1C(=O)[C@]1(CO1)[C@]23C", "4.46 µM (inactive)"),
    ("C[n+]1cc2cc(O)c(O)cc2c2ccc3cc(O)c(O)cc3c21.c1ccncc1", "2.88 µM (inactive)"),
]

Entry CCOC(=O)C1(C#N)OC(=O)c2cnccc21 (stereo not given) ; GI50 = > 100 µM (inactive)

compound CC(=O)Nc1ccc(/C=c2\sc3nnc(/C=C/c4ccccc4)n3c2=O)cc1 , GI50 observed: > 50 µM (inactive)

Kindly note the recorded GI50 for Cc1sccc1C(=S)Nc1ccc(Cl)c(/C=N/OC(C)(C)C)c1 , which is 15.2 µM (inactive)

In plain terms, CCCCCCCCCCCCCCCCc1c(O)nc(NN)nc1C(=O)OC has a documented GI50 of > 50 µM (inactive)

For reference, reported GI50 for CCOC(=O)C1=C(C)NC(=S)NC1c1cccc(O)c1 (stereo not given) stands at 66.1 µM (inactive)

For record CCOC(=O)C1=C(C)N(NC(=O)Nc2ccccc2)C2(N)N(NC(=O)Nc3ccccc3)C(C)=C(C(=O)OCC)C12C(=O)OCC (stereo not given) the listed GI50 is 29.5 µM (inactive)

Looking up Cc1cc2c3c(c1)CCCN3CCC2 , I found its GI50 recorded as > 10 µM (inactive)

Looking up COC(=O)CC1CC2(C(=O)OC)c3[nH]c4ccccc4c3CCN2C1=O (stereo not given) , I see its GI50 listed as > 100 µM (inactive)

The recorded GI50 for Cc1ccc(C(=O)Nc2ccc(CP(=O)(O)O)cc2CP(=O)(O)O)cc1NC(=O)Nc1cc(C(=O)Nc2ccc(CP(=O)(O)O)cc2CP(=O)(O)O)ccc1C is > 100 µM (inactive)

For this compound ( Clc1ccc(C2N3CCCCC3[C@@H]3c4[nH]c5ccccc5c4CCN23)cc1 (stereo not given in full) ), measured GI50 is 56.1 µM (inactive)
